STUDY_TARGET: Ba/F3 EML4-ALK v1 I1171N (Homo sapiens (Human), UniProt Q9HC35+Q9UM73, I1171N)
Sequence (Q9UM73 other isoform, or with tags, fused parts or gaps I1171N): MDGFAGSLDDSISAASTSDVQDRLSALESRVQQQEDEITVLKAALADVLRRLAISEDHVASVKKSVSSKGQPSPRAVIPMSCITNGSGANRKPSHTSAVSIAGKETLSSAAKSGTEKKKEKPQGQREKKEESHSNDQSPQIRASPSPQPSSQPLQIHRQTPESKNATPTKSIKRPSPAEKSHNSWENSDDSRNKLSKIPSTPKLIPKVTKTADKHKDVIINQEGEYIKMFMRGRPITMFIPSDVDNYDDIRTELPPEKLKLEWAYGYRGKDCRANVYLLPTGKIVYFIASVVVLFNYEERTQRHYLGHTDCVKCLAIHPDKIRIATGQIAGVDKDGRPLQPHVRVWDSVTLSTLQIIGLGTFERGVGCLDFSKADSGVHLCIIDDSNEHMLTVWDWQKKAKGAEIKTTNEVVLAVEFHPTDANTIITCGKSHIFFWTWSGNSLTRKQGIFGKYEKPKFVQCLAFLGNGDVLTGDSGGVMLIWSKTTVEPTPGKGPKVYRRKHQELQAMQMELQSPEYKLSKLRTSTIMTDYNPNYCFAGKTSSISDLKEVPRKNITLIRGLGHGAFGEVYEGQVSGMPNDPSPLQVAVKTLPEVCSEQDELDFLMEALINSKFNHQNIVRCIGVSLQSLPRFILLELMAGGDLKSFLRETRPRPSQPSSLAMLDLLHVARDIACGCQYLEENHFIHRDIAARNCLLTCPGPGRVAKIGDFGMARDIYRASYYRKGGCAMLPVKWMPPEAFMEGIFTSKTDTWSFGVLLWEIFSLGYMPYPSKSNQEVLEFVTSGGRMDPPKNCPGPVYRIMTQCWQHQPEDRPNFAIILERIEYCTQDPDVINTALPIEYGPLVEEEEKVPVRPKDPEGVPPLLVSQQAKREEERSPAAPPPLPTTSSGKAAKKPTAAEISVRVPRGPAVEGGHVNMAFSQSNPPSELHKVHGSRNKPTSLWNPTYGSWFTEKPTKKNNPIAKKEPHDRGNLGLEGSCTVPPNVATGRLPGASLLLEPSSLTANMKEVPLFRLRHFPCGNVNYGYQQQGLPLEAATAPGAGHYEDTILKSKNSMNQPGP
PROTOCOL_TEXT: Ba/F3 cell proliferation assay, EML4-ALK v1 I1171N
Format: cell-based
MEASUREMENT_PARAMETERS: Ba/F3 stable cells, 72 hours, CellTiter-Glo
OUTCOME_MEASURE: IC50

Known IC50 results, listed for orientation:
structure_smiles=C[C@H]1Oc2cc(cnc2N)-c2c(nn(C)c2C#N)C(=O)c2cccnc2-c2c(F)cc(F)cc21 outcome_measure=IC50 result="0.1 to 50 nM"
structure_smiles=CCn1nc(C#N)c2c1-c1cnc(N)c(c1)O[C@H](C)c1cc(F)ccc1-c1nn(C)cc1C2 outcome_measure=IC50 result="50 to 500 nM"
structure_smiles=C[C@H]1Oc2cc(cnc2N)-c2c(nn(C)c2C#N)C(=O)c2scnc2-c2c(F)cc(F)cc21 outcome_measure=IC50 result="0.1 to 50 nM"
structure_smiles=C[C@H]1Oc2cc(cnc2N)-c2c(nn(C)c2CC2CC2)C(=O)c2cccnc2-c2ccc(F)cc21 outcome_measure=IC50 result="50 to 500 nM"
structure_smiles=COCCn1nc2c(c1C#N)-c1cnc(N)c(c1)O[C@H](C)c1cc(F)ccc1-c1ncccc1C2=O outcome_measure=IC50 result="0.1 to 50 nM"

Lab request: please report IC50 under test system Ba/F3 EML4-ALK v1 I1171N (Homo sapiens (Human), UniProt Q9HC35+Q9UM73, I1171N) for CCn1ncc2c1-c1cnc(N)c(c1)O[C@H](C)c1cc(F)ccc1-c1ncccc1O2
0.1 to 50 nM

Let us now turn to C[C@H]1Oc2cc(cnc2N)-c2c(c(C(=O)N(C)C)nn2CC2CC2)Cc2cccnc2-c2ccc(F)cc21
0.1 to 50 nM

Next up: Cc1nc2c(s1)C(=O)c1nn(C)c(C#N)c1-c1cnc(N)c(c1)O[C@H](C)c1cc(F)ccc1-2
0.1 to 50 nM

Another compound: C[C@H]1Oc2cc(cnc2N)-c2c(c(C(=O)N(C)C)nn2CC2CC2)Cc2cn(C)nc2-c2ccc(F)cc21
0.1 to 50 nM

Now the same for CCn1nc(C(N)=O)c2c1-c1cnc(N)c(c1)O[C@H](C)c1cc(F)ccc1-c1nn(C)cc1C2
0.1 to 50 nM

Can you check C[C@H]1Oc2cc(cnc2N)-c2c(c(C(=O)N(C)C)nn2CC2CC2)Cc2cccnc2-c2c(F)cc(F)cc21 next?
50 to 500 nM

Now the same for CCN(C)C(=O)c1nn(CC2CC2)c2c1Cc1cn(C)nc1-c1ccc(F)cc1[C@@H](C)Oc1cc-2cnc1N
0.1 to 50 nM

Entry C[C@H]1Oc2nc(cnc2N)-c2c(nn(C)c2C#N)C(=O)c2cccnc2-c2c(F)cc(F)cc21 please
0.1 to 50 nM

Moving on to the next compound: C[C@H]1Oc2cc(cnc2N)-c2c(cnn2CC2CC2)C(=O)c2cccnc2-c2ccc(F)cc21
> 500 nM

Now the same for C[C@H]1Oc2cc(cnc2N)-c2c(c(C(=O)N(C)C)nn2C2CCC2)Cc2cccnc2-c2ccc(F)cc21
0.1 to 50 nM

###

// pKi collected for UniProt:Q16620
Sequence (Q16620 538-807): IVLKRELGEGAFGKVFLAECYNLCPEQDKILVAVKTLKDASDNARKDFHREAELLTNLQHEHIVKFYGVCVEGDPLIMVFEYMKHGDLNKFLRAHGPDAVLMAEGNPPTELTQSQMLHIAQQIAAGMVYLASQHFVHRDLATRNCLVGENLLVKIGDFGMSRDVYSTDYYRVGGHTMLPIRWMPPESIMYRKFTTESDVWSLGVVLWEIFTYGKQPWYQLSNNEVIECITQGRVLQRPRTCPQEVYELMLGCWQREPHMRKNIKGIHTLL
pKi: −log10 of the molar value.

compound=C[C@H]1Oc2cc(cnc2N)-c2c(c(C(=O)N(C)C)nn2CC2CCC2)Cc2cn(C)nc2-c2ccc(F)cc21 result="≤ 6.30"
compound=CC(=O)c1nn(CC2CC2)c2c1Cc1cn(C)nc1-c1ccc(F)cc1[C@@H](C)Oc1cc-2cnc1N result="≤ 6.30"
compound="C[C@H]1Oc2cc(cnc2N)-c2c(c([S+](C)[O-])nn2CC2CC2)Cc2cn(C)nc2-c2ccc(F)cc21 (stereo partly shown)" result="6.30 to 7.30"
compound=C[C@H]1Oc2cc(cnc2N)-c2c(c(C(=O)N(C)C)nn2CC2CC2)Cc2cccnc2-c2ccc(F)cc21 result="6.30 to 7.30"
compound=C[C@H]1Oc2cc(cnc2N)-c2c(nn(C)c2C#N)C(=O)c2cccnc2-c2ccc(F)cc21 result="6.30 to 7.30"

Name the reported pKi value associated with the compound C[C@H]1Oc2cc(cnc2N)-c2c(c(C(=O)N3CCC(F)(F)C3)nn2CC2CC2)Cc2cn(C)nc2-c2ccc(F)cc21
≤ 6.30

Moving on to Cc1ocnc1-c1nn(CC2CC2)c2c1Cc1cccnc1-c1ccc(F)cc1[C@@H](C)Oc1cc-2cnc1N
6.30 to 7.30

These measurements were taken from patent US20250326769A1.
